ED50 for inhibition of THP-1 migration versus IL8 reference
molecular target: chemokine receptors on THP-1 cells; test: cell-based or functional assay
Ends that are not written are not given here.
Respond numerically; units are nM and should not be typed.

{"columns": ["binder", "result_value"],
 "data": [
  ["EICLDPKQKWIQ (also called Leu4Ile11pep3; Leu4Ile11peptide 3[MCP-1]) [Leu4Ile11peptide 3(1-12)[MCP-1]]", 3000],
  ["EICADPKQKWIQ [Ile11peptide 3(1-12)[MCP-1]]", 2000],
  ["KQKWVQ (also called Pep3[7-12]; KQKWVQ) [peptide 3(7-12)[MCP-1]]", 6000],
  ["EICADP [peptide 3(1-6)[MCP-1]]", 17000],
  ["EICLDPKQKWVQ [Leu4peptide 3(1-12)[MCP-1]]", 3000],
  ["EICADPSEEWVQ (not fully specified, also called Ser7Glu8Glu9pep3) [Ser7Glu8Glu9peptide 3(1-12)[MCP-1]]", 9000],
  ["CADPKQKWVQ (also called Pep3[3-12]; Pep3(3-12)[MCP-1]) [peptide 3(3-12)[MCP-1]]", 9000]
]}

In the following, a different binder is considered.
Sample EICADPSQKWVQ (Mutant of peptide 3; also called Ser7pep3) [Ser7peptide 3(1-12)[MCP-1]] ; ED50 for inhibition of THP-1 migration versus IL8 observed: 3000
